Assay: rat acute oral toxicity
Settings: in vivo
Description: […]The data set underlying the modeling effort for this project was initially compiled by NICEATM and U.S. EPA’s CCTE. Briefly, LD50 data were collected from rat acute oral systemic toxicity tests, including limit tests, ranges/confidence intervals, and discrete LD50 values. The full data set included 21,200 LD50 entries for 15,688 substances. […]
observationType: log10(LD50) (log10 of the value in mg/kg)
Note: values are log10 of LD50 expressed in mg/kg.

Sample NS(=O)(=O)Cc1noc2ccccc12 ; log10(LD50) observed: 3.30

Sample C=CC(=O)OCCOC ; log10(LD50) observed: 2.61

Sample Cc1cc(Cl)ccc1OCCCC(=O)O ; log10(LD50) observed: 2.83

Sample CC(C)CC(C)O (stereo not drawn) ; log10(LD50) observed: 3.41

Sample CCOP(=S)(OCC)OC(Cl)C(Cl)(Cl)Cl (stereo not drawn) ; log10(LD50) observed: 0.26

Sample O=C1OC(=O)c2cccc3cccc1c23 ; log10(LD50) observed: 3.98

Sample CCCCCCCCCC(=O)O ; log10(LD50) observed: 3.52

Sample COCCCNc1nc(NCCCOC)nc(SC)n1 ; log10(LD50) observed: 3.15

Sample CC1(C)CC(O)CC(C)(C)N1[O] ; log10(LD50) observed: 2.98

Sample CC(C)N(C(=O)CO)c1ccc(F)cc1 ; log10(LD50) observed: 2.68

Sample CCC(=O)OCc1ccccc1 ; log10(LD50) observed: 3.52

Sample COP(=S)(OC)Oc1ccc([N+](=O)[O-])c(C)c1 ; log10(LD50) observed: 2.40

Sample C#CCN1CC(=O)N(COC(=O)[C@@H]2[C@@H](C=C(C)C)C2(C)C)C1=O ; log10(LD50) observed: 2.95

Sample CCOCCO ; log10(LD50) observed: 3.18

Sample C=CC(C)(CCC=C(C)C)OC(C)=O (stereo not drawn) ; log10(LD50) observed: 4.14

Sample CC(C)[C@H](C(=O)O[C@H](C#N)c1cccc(Oc2ccccc2)c1)c1ccc(Cl)cc1 ; log10(LD50) observed: 1.94

Sample NC(N)=O ; log10(LD50) observed: 3.93

Sample CCSC(=O)N(CC(C)C)CC(C)C ; log10(LD50) observed: 3.60

Sample O=S(=O)(O)CCCS ; log10(LD50) observed: 3.57

Sample O=Cc1ccncc1 ; log10(LD50) observed: 3.34

Sample CN(C)CCCNCCCN ; log10(LD50) observed: 3.19

Sample CCOCn1c(-c2ccc(Cl)cc2)c(C#N)c(Br)c1C(F)(F)F ; log10(LD50) observed: 2.75

Sample CC(C)(C)C(=O)O ; log10(LD50) observed: 2.95
